Kindly supply the reported log10 of IC50 values for the records listed here.
biological target: V1 receptor (Rattus norvegicus, UniProt P30560); experiment: biochemical; type: binding
Sequence (P30560 whole entry): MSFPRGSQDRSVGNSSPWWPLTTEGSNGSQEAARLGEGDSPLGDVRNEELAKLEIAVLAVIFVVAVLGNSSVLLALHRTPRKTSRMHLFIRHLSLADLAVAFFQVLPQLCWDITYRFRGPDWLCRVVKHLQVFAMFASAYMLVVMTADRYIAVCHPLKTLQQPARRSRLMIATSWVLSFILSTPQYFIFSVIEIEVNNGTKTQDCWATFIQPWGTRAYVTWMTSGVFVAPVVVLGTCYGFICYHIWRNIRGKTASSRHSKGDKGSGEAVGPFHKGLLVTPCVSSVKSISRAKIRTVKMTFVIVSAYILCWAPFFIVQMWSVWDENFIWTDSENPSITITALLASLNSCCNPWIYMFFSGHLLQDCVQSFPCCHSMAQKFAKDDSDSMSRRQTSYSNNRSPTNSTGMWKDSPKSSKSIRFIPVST
Hi team, quick reminder: these entries are log10 of IC50 (nM).

1. O=C(c1ccc(OCCCCO)cc1)N1CCC(N2C(=O)CCc3ccccc32)CC1; 2.57

// each listed compound needs a value for log10 of IC50
1. CN(C)CCNC(=O)CCCCCOc1ccc(C(=O)N2CCC(N3C(=O)CCc4ccccc43)CC2)cc1
2. COCCCOc1cc(OC)ccc1C(=O)N1CCC(N2C(=O)CCc3ccccc32)CC1
3. COc1ccc(C(=O)N2CCC(N3C(=O)CCc4ccccc43)CC2)c(NC(=O)OCc2ccccc2)c1

1.74
2.61
2.85
